assay.system: human D2 receptor (Homo sapiens (Human))
Sequence (P14416 whole entry): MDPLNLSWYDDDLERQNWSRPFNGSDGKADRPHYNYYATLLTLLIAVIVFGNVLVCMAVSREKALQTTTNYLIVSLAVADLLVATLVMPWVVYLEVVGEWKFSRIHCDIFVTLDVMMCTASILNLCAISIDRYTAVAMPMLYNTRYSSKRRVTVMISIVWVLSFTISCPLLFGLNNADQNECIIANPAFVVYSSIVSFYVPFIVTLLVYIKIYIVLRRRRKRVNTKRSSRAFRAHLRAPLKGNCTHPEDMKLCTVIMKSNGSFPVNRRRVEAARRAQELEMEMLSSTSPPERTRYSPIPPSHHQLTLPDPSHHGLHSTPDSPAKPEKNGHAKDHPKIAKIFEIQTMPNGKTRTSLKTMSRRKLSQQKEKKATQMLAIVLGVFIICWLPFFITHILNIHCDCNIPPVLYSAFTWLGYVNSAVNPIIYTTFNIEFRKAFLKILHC
protocol.details: Test 1: binding activity for human D2 receptor ([3H]Spiperone, CHO cell membrane fraction)
experimental.conditions: human D2 receptor, [3H]Spiperone
value.kind: Ki
Don't forget the unit after the number, please.

Look over these answered cases.
O=C1c2cn[nH]c2CCN1CCN1CCN(c2nsc3ccccc23)CC1	1.92 µM
Cc1noc2ccn(CCN3CCC(c4noc5ccccc45)CC3)c(=O)c12	0.75 µM
Cc1ncc2c(n1)CCN(CCN1CCN(c3nsc4ccccc34)CC1)C2=O	1.07 µM
O=C1c2c(Br)n[nH]c2CCN1CCN1CCC(c2noc3ccccc23)CC1	0.219 µM

Proceeding to the next compound to report its Ki.
Q. Lab note: need Ki with human D2 receptor (Homo sapiens (Human)) for entry O=c1c2cnc(C3CC3)nc2ccn1CCN1CCN(c2nsc3ccccc23)CC1 , please look it up.
A. 1.4 µM

====

Recorded Emax at 10 µM, one value per entry.
assay.system: human 5-HT1A receptor (Homo sapiens (Human), UniProt P08908)
Sequence (P08908 whole entry): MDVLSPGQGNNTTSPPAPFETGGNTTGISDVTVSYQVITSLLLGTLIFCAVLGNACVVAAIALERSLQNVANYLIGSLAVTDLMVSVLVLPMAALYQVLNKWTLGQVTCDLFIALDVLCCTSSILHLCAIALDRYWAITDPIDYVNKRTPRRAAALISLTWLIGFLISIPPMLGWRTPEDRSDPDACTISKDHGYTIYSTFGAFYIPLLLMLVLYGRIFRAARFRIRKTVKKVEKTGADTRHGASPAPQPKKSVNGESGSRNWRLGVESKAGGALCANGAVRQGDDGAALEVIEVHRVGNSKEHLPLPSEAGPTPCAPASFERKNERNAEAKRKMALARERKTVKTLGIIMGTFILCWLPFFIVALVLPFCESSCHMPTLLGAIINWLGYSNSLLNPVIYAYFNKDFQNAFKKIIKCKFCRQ
protocol.details: Test 2: agonist activity for human 5-HT1A receptor ([35S]GTPγS binding)
Assay type: biochemical
experimental.conditions: agonist activity in the presence of 10 μM of compound, relative to 100 μmol/L 5-HT
Your answer should be a plain number; it is taken to be in %.

Look over these answered cases.
Cn1ncc2c1C(=O)N(CCN1CCC(c3noc4ccccc34)CC1)CC2 [Example 96]	33
Cn1c(F)cc2c1CCN(CCN1CCN(c3nsc4ccccc34)CC1)C2=O [Example 112]	64
O=c1c2cnc(C(F)(F)F)cc2ccn1CCN1CCN(c2noc3ccccc23)CC1 [Example 173]	50
Cc1ncc2c(n1)CCN(CCN1CCC(c3noc4ccccc34)CC1)C2=O [Example 88]	49
Cn1ccc2c1CCN(CCN1CCN(c3noc4ccccc34)CC1)C2=O [Example 170]	42

Q. Lab note: need Emax at 10 µM with human 5-HT1A receptor (Homo sapiens (Human), UniProt P08908) for entry Cc1cc2c(cn1)C(=O)N(CCN1CCN(c3nsc4ccccc34)CC1)CC2 [Example 108] , please look it up.
A. 71

Q. Lab note: need Emax at 10 µM with human 5-HT1A receptor (Homo sapiens (Human), UniProt P08908) for entry CC(C)c1ncc2c(=O)n(CCN3CCN(c4nsc5ccccc45)CC3)ccc2n1 [Example 181] , please look it up.
A. 53

====

assay.system: human 5-HT1A receptor (Homo sapiens (Human))
protocol.details: Test 2: agonist activity for human 5-HT1A receptor ([35S]GTPγS binding)
Assay type: biochemical
experimental.conditions: agonist activity in the presence of 10 μM of compound, relative to 100 μmol/L 5-HT
value.kind: Emax at 10 µM (%)
Your answer should be a plain number; it is taken to be in %.

Cn1ncc2c1C(=O)N(CCN1CCN(c3nsc4ccccc34)CC1)CCC2	65
O=c1c2ncccc2ccn1CCN1CCN(c2nsc3ccccc23)CC1	50

Q. // lookup Emax at 10 µM for O=C1c2cnn(C3CC3)c2CCN1CCN1CCN(c2nsc3ccccc23)CC1
A. 43

Q. // lookup Emax at 10 µM for Cc1noc2c1C(=O)N(CCN1CCC(c3noc4ccccc34)CC1)CCC2
A. 56

Q. // lookup Emax at 10 µM for CCn1ncc2c1CCN(CCN1CCN(c3nsc4ccccc34)CC1)C2=O
A. 69

====

assay.system: UniProt P08908
protocol.details: Test 2: agonist activity for human 5-HT1A receptor ([35S]GTPγS binding)
Type: biochemical
experimental.conditions: agonist activity in the presence of 10 μM of compound, relative to 100 μmol/L 5-HT
Recorded Emax at 10 µM, one value per entry.
Your answer should be a plain number; it is taken to be in %.

Look over these answered cases.
Cn1nc2c(c1C(F)(F)F)C(=O)N(CCN1CCN(c3nsc4ccccc34)CC1)CC2	66
Cc1cc2c(n1C)CCCN(CCN1CCC(c3noc4ccccc34)CC1)C2=O	57
Cc1nc2c(o1)C(=O)N(CCN1CCC(c3noc4ccccc34)CC1)CC2	68
Cc1cc2c(cn1)C(=O)N(CCN1CCN(c3noc4ccccc34)CC1)CC2	69
Cn1nc(Br)c2c1CCN(CCN1CCC(c3noc4ccccc34)CC1)C2=O	50

Q. Lab note: need Emax at 10 µM with UniProt P08908 for entry COc1ccc2onc(C3CCN(CCN4CCc5cccnc5C4=O)CC3)c2c1 , please look it up.
A. 54

Q. Lab note: need Emax at 10 µM with UniProt P08908 for entry Cn1cnc2c1C(=O)N(CCN1CCC(c3noc4ccccc34)CC1)CC2 , please look it up.
A. 26

The measured values listed here are drawn from patent US10745401B2.
